biological target: Golgi-associated PDZ and coiled-coil motif-containing protein (Homo sapiens) (UniProt Q9HD26); assay: untagged CAL PDZ binding inhibitors, primary screen, biochemical, fluorescence polarization, HTS (AID 602252); conditions: purified CAL PDZ, TMR-peptide fluorescence polarization, 1 h; at 24.9 µM;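 further: 0% = DMSO neutral control and 100% = excess unlabeled competitor peptide PRC23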
Screen size: about 300,000 compounds; about 2,700 (0.9%) were called active.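 How the source made its calls: active means mean inhibition of at least 30% with at least half of replicates also reaching 30%; inconclusive means no clear call, values can overlap the other calls; inactive means the rest.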 What follows is part of a selection rich in actives, with near analogues and random picks from the rest.
Pick one and only one: active, inactive

Previously resolved entries follow.
Could you please tell me the result logged for "C=CCNC(=S)N1CCN(CCN=Cc2c(C)[nH]n(-c3ccc([N+](=O)[O-])cc3)c2=O)CC1" in this assay? inactive

Record request — test call for "O=C(Cn1c(-c2cscn2)nc2ccccc21)Nc1ccc(Cl)cc1" inactive

Which outcome was assigned to "O=C1C(Cl)=C(Oc2ccccc2)C(=O)c2ccccc21" in this test? inactive

// return assay outcome for "Fc1ccc(-c2ccc(CNCc3ccccn3)o2)cc1Cl" active

Can you look up the reported call for Cc1ccc(C2(C)NC(=O)N(CC(=O)N3CC(=O)Nc4ccccc43)C2=O)cc1 (stereo unspecified) for me? inactive

Which result was noted for this compound in the test: "Cc1cnc(NC(=O)c2ccccn2)s1" active

# outcome recorded in this test, key = "COc1ccc(/C=C2\SC(=N)N(c3ccc(F)cc3)C2=O)cc1" inactive

What is the recorded call for this compound in the test? COc1ccc(C(CNC(=O)c2cccc(S(=O)(=O)Nc3ccc(Br)cc3)c2)N(C)C)cc1 (stereo unspecified) inactive

Recorded test call requested for "O=C(CNC(=O)c1ccccc1F)c1ccc(Br)cc1" active

Field: outcome | Entry: "O=C(CSc1nnc(CNC(=O)c2ccc(F)cc2)o1)Nc1ccc2c(c1)OCO2" active

Read the next record carefully.
Which result was noted for this compound in the test: "C[C@H](CO)N1C[C@H](C)[C@@H](CN(C)Cc2ccc(-c3ccccc3)cc2)Oc2ccc(NC(=O)Cn3cnnn3)cc2C1=O" inactive

----------
For each record, write down the corresponding inhibition.
target: Golgi-associated PDZ and coiled-coil motif-containing protein (Homo sapiens); test: untagged CAL PDZ binding inhibitors, primary screen, biochemical, fluorescence polarization, HTS (AID 602252); settings: purified CAL PDZ, TMR-peptide fluorescence polarization, 1 h; at 24.9 µM; hits give high values;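 further: 0% = DMSO neutral control and 100% = excess unlabeled competitor peptide PRC23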
In all, about 300,000 compounds went through this assay and about 2,700 (0.9%) were called active. The sample as a whole holds a higher share of actives than the screen did.
Numbers only, in %.

What measured inhibition goes with "CC1=NN(c2ccc(Cl)c(C(=O)O)c2)C(=O)/C1=C/c1ccc(-c2ccccc2[N+](=O)[O-])o1" ? 64

Items follow; give inhibition for each.
1. CN(C)C(=S)N=c1ssc(=S)n1Cc1ccco1
2. COc1ccc(-c2oc3ncn(Cc4ccco4)c(=N)c3c2-c2ccc(OC)cc2)cc1
3. O=C(COC(=O)c1ccco1)Nc1ccc(Cl)cn1
4. Cc1ccc(OCC(=O)Nc2ccc(-c3nc4ncccc4o3)cc2)cc1
5. COc1cc(O)c2c(=O)c3c(O)c(O)ccc3oc2c1OC
6. O=C(NCc1cccs1)C1CCN(S(=O)(=O)c2ccc3c(c2)OCCO3)CC1
7. C=CCC[C@H](Cc1ccc(F)cc1)C(=O)OC[C@@H](Cc1c[nH]c2ccccc12)NC(=O)[C@H](CC=C)CC(=O)N[C@H](CO)Cc1ccccc1
8. Cc1ccc(NC(=O)c2cccc(S(=O)(=O)N3CCCc4ccccc43)c2)nc1

1: -2.26; 2: 36.1; 3: -5.62; 4: 46; 5: -1.48; 6: -6.83; 7: -1.97; 8: 44.8

Lab note: each compound below needs its inhibition filled in.
1. O=C(Nc1ccccc1)Oc1cccc2cccnc12
2. CCCCN1CC(CO)Oc2cccc(F)c2S1(=O)=O (configuration not stated)
3. Cc1cccc(OCC(=O)OCC(=O)Nc2ccc(Cl)cn2)c1
4. CC(C)c1ccc(C=NNc2ccc([N+](=O)[O-])cn2)cc1
5. N=c1c2c(-c3ccccc3)c(-c3ccccc3)oc2ncn1Cc1ccco1

[-4.21, -3.69, 74.8, -3.5, 4.45]

// for each compound below, give its inhibition
1. CSCCC(NS(=O)(=O)c1ccc(C)cc1)C(=O)N1CCCC1 (configuration not stated)
2. CC(=O)Nc1ccc(S(=O)(=O)NCCC(=O)N2CCN(c3ccccc3Cl)CC2)cc1
3. Cc1cccc(NC(=O)c2cccc(S(=O)(=O)N3CCCC3)c2)n1
4. Cc1cc(OCCCC(=O)Nc2cc(S(=O)(=O)N3CCOCC3)ccc2N2CCOCC2)ccc1Cl
5. CN(C(=O)c1cccc(NC(=O)Cc2ccc(NC(=O)C3CCCN(C(=O)C4CCCC4)C3)cc2)c1)C1CCC1 (configuration not stated)
6. CSCCC(NC(=O)c1ccccc1)C(=O)N1CCCCCCC1 (configuration not stated)

[68.8, -2.76, -2.35, -3.89, 4.34, -1.09]

For each listed entry, give its inhibition.
1. CN(C)S(=O)(=O)c1cccc(NC(=O)COc2ccc3ccccc3c2)c1
2. O=C(NCc1ccccc1Cl)C1CCN(S(=O)(=O)N2CCOCC2)CC1

1. -3.42
2. 137
